Origin of measurements: patent US8946260B2

Biological target: recombinant Human CYP17 enzyme (17-20 lyase) (Homo sapiens, UniProt P05093)
Construct: made in house; host or cells: A549 cells, adenoviral expression system; purified cell membrane preparations
Sequence (P05093 1-508): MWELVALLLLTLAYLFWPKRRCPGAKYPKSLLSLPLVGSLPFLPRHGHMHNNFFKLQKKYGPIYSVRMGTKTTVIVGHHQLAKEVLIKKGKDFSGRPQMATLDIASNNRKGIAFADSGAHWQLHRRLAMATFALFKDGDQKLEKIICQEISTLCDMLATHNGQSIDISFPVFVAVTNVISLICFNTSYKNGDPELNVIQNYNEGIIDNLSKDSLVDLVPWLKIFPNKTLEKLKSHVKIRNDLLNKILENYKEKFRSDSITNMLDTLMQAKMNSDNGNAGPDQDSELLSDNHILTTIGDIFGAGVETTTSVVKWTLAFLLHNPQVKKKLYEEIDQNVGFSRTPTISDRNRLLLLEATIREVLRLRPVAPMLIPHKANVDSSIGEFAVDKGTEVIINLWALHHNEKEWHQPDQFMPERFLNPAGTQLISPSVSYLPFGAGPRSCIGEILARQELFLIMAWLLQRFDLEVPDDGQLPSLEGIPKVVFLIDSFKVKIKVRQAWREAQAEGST
Assay: Cytochrome P450, 17-20 lyase (CYP17-lyase) assay, 17-α-hydroxy pregnenolone [21-3H] as substrate
Format: biochemical
Settings: human CYP17 lyase; substrate 0.25 μM; room temperature, 90 minutes; read-out: Lyase IC 50 nM Human
MEASUREMENT KIND: IC50 (nM)
Numbers only, in nM.

COMPOUND	IC50 / nM
Cc1ccncc1N1CCc2cc3cn[nH]c3cc2C1=O [Example 69A]	93
Cc1ccncc1N1CCc2cc(O)ccc2C1=O [Example 11B]	139
Cc1ccncc1N1CCc2cc(F)c(F)cc2C1=O [Example 49A]	159
Cc1ccncc1N1CCc2ccc3ncsc3c2C1=O [Example 66A]	11
O=C1c2cc(C(F)(F)F)ccc2CCN1c1cnccc1CN1CCCC1 [Example 52A]	556
Cc1ccncc1N1CCc2sc(-c3ccc(F)cc3)cc2C1=O [Example 14A]	755
O=C1c2cc(Cl)c(Cl)cc2CCN1c1cnccc1C(F)(F)F [Example 55A]	125
O=C1c2cc(C(F)(F)F)ccc2CCN1c1cncc(F)c1 [Example 18A]	334

Provide each entry's IC50 from the list below.
1. Cc1ccncc1N1CCc2ccc(OC(F)(F)F)cc2C1=O [Example 51A]
2. O=C1c2cc(Cl)ccc2CCN1c1cnccc1C1CC1 [Example 74A]
3. Cc1ccncc1-n1ccc2[nH]c3ccccc3c2c1=O [Example 62A]
4. Cc1ccncc1N1CCc2ccc(Cl)cc2C1=O
5. CCn1ccc2c1C(=O)N(c1cnccc1C)CC2 [Example 28A]

22
23
17
37
70

---

target: recombinant Human CYP17 enzyme (17-20 lyase) (Homo sapiens, UniProt P05093); construct: made in house; host or cells: A549 cells, adenoviral expression system; purified cell membrane preparations; assay: Cytochrome P450, 17-20 lyase (CYP17-lyase) assay, 17-α-hydroxy pregnenolone [21-3H] as substrate; type: biochemical; conditions: human CYP17 lyase; substrate 0.25 μM; room temperature, 90 minutes; read-out: Lyase IC 50 nM Human
Simple rule here: IC50 less than 20 nM is condition met, otherwise condition not met.

Past entries and their recorded results:
COMPOUND	QUALITATIVE LABEL
O=C1c2cc(I)c(F)cc2CCN1c1cnccc1C(F)(F)F [Example 79A]	condition met
O=C1c2cc(C(F)(F)F)ccc2CCN1c1cccnc1 [Example 16A]	condition not met
CCn1c2c(c3ccccc31)CCN(c1cnccc1C)C2=O [Example 38A]	condition not met
COc1ccc2c(c1)CCN(c1cnccc1C)C2=O [Example 11A]	condition not met
Cc1ccncc1N1C(=O)c2cc(C(F)(F)F)ccc2CC1C (stereo not drawn) [Example 48A]	condition met

Please look at the following compound next.
Quick check: IC50 of Cc1ccncc1N1CCc2cc(F)c(Cl)cc2C1=O [Example 84A] under 20 nM?
condition met

---

target: recombinant Human CYP17 enzyme (17-20 lyase) (Homo sapiens); construct: made in house; host or cells: A549 cells, adenoviral expression system; purified cell membrane preparations; assay: Cytochrome P450, 17-20 lyase (CYP17-lyase) assay, 17-α-hydroxy pregnenolone [21-3H] as substrate; assay type: biochemical; conditions: at 10 μM; read-out: hCYP17 Lyase % Inh
Respond with satisfied for inhibition at 10 µM values of 40% and above, not satisfied for values below.

Past entries and their recorded results:
COMPOUND	QUALITATIVE LABEL
COc1ccc(F)c2c1C(=O)N(c1cnccc1C)CC2 [Example 44A]	not satisfied
Cc1ccncc1N1CCc2sccc2C1=O	satisfied
Cc1ccncc1N1CCc2ccc(Oc3ncc(F)cn3)cc2C1=O [Example 37A]	satisfied
Cc1ccncc1N1CCc2c(cccc2C(F)(F)F)C1=O [Example 22A]	satisfied

Evaluate `O=C1c2sccc2CCN1c1cccnc1` : inhibition at 10 µM at minimum 40%?
satisfied

# iterate: Cc1ccncc1-n1ccc2ccc(NC(=O)C3CC3)cc2c1=O [Example 24A]
satisfied

---

molecular target: recombinant Human CYP17 enzyme (17-20 lyase) (Homo sapiens, UniProt P05093); construct: made in house; host or cells: A549 cells, adenoviral expression system; purified cell membrane preparations; assay: Cytochrome P450, 17-20 lyase (CYP17-lyase) assay, 17-α-hydroxy pregnenolone [21-3H] as substrate; format: biochemical; conditions: human CYP17 lyase; substrate 0.25 μM; room temperature, 90 minutes; read-out: Lyase IC 50 nM Human
Simple rule here: IC50 less than 50 nM is Y, otherwise N.

MOLECULE	TARGET OR SYSTEM	QUALITATIVE LABEL
O=C1c2c(sc3ccc(F)cc23)CCN1c1cnccc1C(F)(F)F [Example 57A]	recombinant Human CYP17 enzyme (17-20 lyase) (Homo sapiens, UniProt P05093)	N
Cc1ccncc1N1CCc2sc3ccc(F)cc3c2C1=O [Example 50A]	recombinant Human CYP17 enzyme (17-20 lyase) (Homo sapiens, UniProt P05093)	Y
O=C1c2cc(C(F)(F)F)ccc2CCN1c1cnccc1C1CC1 [Example 73A]	recombinant Human CYP17 enzyme (17-20 lyase) (Homo sapiens, UniProt P05093)	Y

Quick check: IC50 of Cc1ccncc1N1CCc2ccccc2C1=O [Example 23A] under 50 nM?
N

# iterate: Cc1ccncc1N1CCc2ccc(Cl)c(F)c2C1=O [Example 33A]
Y

# iterate: O=c1c2cc(C(F)(F)F)ccc2ccn1-c1cccnc1 [Example 36A]
N

# iterate: CCc1ccncc1N1CCc2ccc(Cl)cc2C1=O [Example 75A]
Y

# iterate: Cc1ccncc1N1CCc2cc(C(F)(F)F)ccc2C1=O [Example 17A]
N

---

target: recombinant Human CYP17 enzyme (17-20 lyase) (Homo sapiens, UniProt P05093); construct: made in house; host or cells: A549 cells, adenoviral expression system; purified cell membrane preparations; assay: Cytochrome P450, 17-20 lyase (CYP17-lyase) assay, 17-α-hydroxy pregnenolone [21-3H] as substrate; assay type: biochemical; settings: human CYP17 lyase; substrate 0.25 μM; room temperature, 90 minutes; read-out: Lyase IC 50 nM Human
MEASUREMENT KIND: IC50 (nM)
One number for each entry, in nM.

Provide each entry's IC50 from the list below.
1. Cn1cncc1N1CCc2ccc(C(F)(F)F)cc2C1=O [Example 54A]
2. Cc1ccncc1N1CCc2c(sc3ccc(F)cc23)C1=O [Example 45A]

[19, 211]

---

target: recombinant Human CYP17 enzyme (17-20 lyase) (Homo sapiens, UniProt P05093); construct: made in house; host or cells: A549 cells, adenoviral expression system; purified cell membrane preparations; assay: Cytochrome P450, 17-20 lyase (CYP17-lyase) assay, 17-α-hydroxy pregnenolone [21-3H] as substrate; assay type: biochemical; conditions: human CYP17 lyase; substrate 0.25 μM; room temperature, 90 minutes; read-out: Lyase IC 50 nM Human
Simple rule here: IC50 less than 40 nM is label 1, otherwise label 0.

Past entries and their recorded results:
MOLECULE	TARGET OR SYSTEM	QUALITATIVE LABEL
Cc1ccncc1N1CCc2ccc(O)cc2C1=O [Example 27A]	recombinant Human CYP17 enzyme (17-20 lyase) (Homo sapiens, UniProt P05093)	label 0
Cc1ccncc1N1CCc2cnccc2C1=O [Example 67A]	recombinant Human CYP17 enzyme (17-20 lyase) (Homo sapiens, UniProt P05093)	label 0
COc1cccc2c1CCN(c1cnccc1C)C2=O [Example 13A]	recombinant Human CYP17 enzyme (17-20 lyase) (Homo sapiens, UniProt P05093)	label 0

Quick check: IC50 of Cc1ccncc1N1CCc2[nH]c3ccc(F)cc3c2C1=O [Example 60A] under 40 nM?
label 1

# iterate: O=C1c2cc(C(F)(F)F)ccc2CCN1c1cnccc1CNC1CC1 [Example 53A]
label 0

# iterate: CCn1c2c(c3ccccc31)CC(C)N(c1cnccc1C)C2=O (centres unmarked) [Example 46A]
label 0

# iterate: Cc1ccncc1N1CCc2cc(C#N)c(Cl)cc2C1=O [Example 88A]
label 1

# iterate: Cc1ccncc1N1CCc2ccc(C#N)cc2C1=O [Example 32A]
label 0
